Assay: Compound was tested for inhibition of NK1 receptor from gerbil midbrain; NT means not tested
pIC50: −log10 of the molar value.
Property Name: pIC50

Structure String: O=C(c1cc(Cl)cc(Cl)c1)N1CC[C@H](NCc2ccnc3ccccc23)C[C@H]1Cc1ccccc1
Property Name: pIC50
Assay Result: 7.59

Structure String: CN(C)CCCOC(=O)N[C@H]1CCN(C(=O)c2cc(C(F)(F)F)cc(C(F)(F)F)c2)[C@H](Cc2ccccc2)C1
Property Name: pIC50
Assay Result: 7.96

Structure String: O=C(c1cc(C(F)(F)F)cc(C(F)(F)F)c1)N1CC[C@H](NCc2ccnc3ccccc23)C[C@H]1Cc1ccccc1
Property Name: pIC50
Assay Result: 7.77

Structure String: CN(Cc1ccnc2ccccc12)[C@H]1CCN(C(=O)c2cc(Cl)cc(Cl)c2)[C@H](Cc2ccccc2)C1
Property Name: pIC50
Assay Result: 6.41

Structure String: O=C(c1ccc2ccccc2c1)N1CC[C@H](NCc2ccnc3ccccc23)C[C@H]1Cc1ccccc1
Property Name: pIC50
Assay Result: 6.15

Structure String: O=C(c1cccc(Cl)c1)N1CC[C@H](NCc2ccnc3ccccc23)C[C@H]1Cc1ccccc1
Property Name: pIC50
Assay Result: 7.27

Structure String: NCC(=O)N[C@H]1CCN(C(=O)c2cc(C(F)(F)F)cc(C(F)(F)F)c2)[C@H](Cc2ccccc2)C1
Property Name: pIC50
Assay Result: 7.21

Structure String: Cc1cc(C)cc(C(=O)N2CC[C@H](NCc3ccncc3)C[C@H]2Cc2ccccc2)c1
Property Name: pIC50
Assay Result: 6.68

###

Assay: Compound was tested for inhibition of [125I]eledoisin radioligand binding to NK3 receptor from gerbil cortex
pIC50: −log10 of the molar value.

Structure String: Cc1cc(C)cc(C(=O)N2CC[C@H](NCc3cnc4ccccc4c3)C[C@H]2Cc2ccccc2)c1
pIC50: 5.00
